# targetDesc: T1, CSP Protein (Plasmodium falciparum, UniProt Q7K740 19-374)
# T1 construct: also called circumsporozoite protein; complete CSP protein
# T1 sequence (Q7K740 19-374 limits assumed): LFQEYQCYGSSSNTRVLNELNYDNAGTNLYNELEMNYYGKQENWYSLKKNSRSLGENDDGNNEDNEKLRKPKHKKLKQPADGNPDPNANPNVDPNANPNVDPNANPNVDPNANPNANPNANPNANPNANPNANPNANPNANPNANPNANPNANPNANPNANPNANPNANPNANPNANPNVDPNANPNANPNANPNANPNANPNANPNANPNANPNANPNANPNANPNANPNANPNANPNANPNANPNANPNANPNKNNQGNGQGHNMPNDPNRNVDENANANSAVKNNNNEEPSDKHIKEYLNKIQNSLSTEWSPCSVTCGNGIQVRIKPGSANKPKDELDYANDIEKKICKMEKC
# testSummary: SPR, antibody on chip;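 further: antibodies immobilized on a Carterra chip, directly or via anti-human Fc capture, at two spots each, with CSP flowed over at 4-5 concentrations peaking at 0.5-8 µg/mL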

binder	unitString	Kd
AB-007056 (antibody, V domains shown) VH: QMQLVESGGGVVQPGRSLRLSCTASGFTFSTYAMHWVRQSPGQGLQWVAVISYHSTNKYYEDSVRGRFTISRDNSKNTLYLQMNSLRAEDTAVYYCARDGYQSSFFDFWGQGTLVTVSS VL: DIQMTQSPSTLSASVGDRVAITCRASQSISRWLAWYQQQPGKAPKLLMSGASVLESGVPSRFSGSGSGTEFTLTISSLQPDDFATYYCQHYNSYFVTFGQGTKVEIK	nM	0.042
AB-007063 (antibody, V domains shown) VH: QMQLVESGGGVVQPGRSLRLSCTASGFTFSTYAMHWVRQSPGQGLQWVAVISYHSTNKYYEDSVRGRFTISRDNSKNTLYLQMNSLRAEDTAVYYCARDGYSSSFFDFWGQGTLVTVSS VL: DIQMTQSPSTLSASVGDRVAITCRASQSISRWLAWYQQQPGKAPKLLMAGASVLESGVPSRFSGSGSGTEFTLTISSLQPDDFATYYCQHYNSYFVTFGQGTKVEIK	nM	0.0524

Measured values drawn from patent US20220195023A1 for this set.
